# MEASURED_ON: RSV fusion glycoprotein (RSV F) on RSV-A2 virus (respiratory syncytial virus, UniProt P03420 26-574)
# ASSAY_PROTOCOL: cell-based or functional assay
MEASUREMENT_KIND: Neutralization IC50 (RSV subtype A) (µg/mL)
# output: bare number, implied unit µg/mL

| BINDER | UNIT_INFO | ENDPOINT_RESULT |
| --- | --- | --- |
| ADI-41398 (antibody, V domains shown, IgG1; also called Ab 691) VH: EVQLLESGAEVKKPGASVKVSCKASGYTFTNYGISWVRQAPGQGLEWMGWISAYNGNTNYAQKLQGRVTMTTDTSTSTAYMELRSLRSDDTAVYYCARDGGVIAAATLGYWGQGTLVTVSS VL: EIVLTQSPLSLPVTLGQPASISCRSSQSLVYSDGNTYLSWFQQRPGQSPRRLIYKISNRDSGVPNRFSGSGSGTDFTLKISRVEAEDVGIYYCMQGIYWPPTFGQGTKVEIK | µg/mL | 0.17 |

Now consider a different binder.
(Q) Which Neutralization IC50 (RSV subtype A) value belongs to ADI-41417 (antibody, V domains shown) VH: QVQLVESGGGLVKPGGSLRLSCAASGFTFSSYSMNWVRQAPGKGLEWVSSISAGSSYIYYADSLKGRFTISRDNAKNSLYLQMNSLRAEDTAVYYCARVNTHYYDSSAYHNFDSWGQGTLVTVSS VL: QPVVTQPPSVSGAPGQRVTISCTGSSSNIGAGYDVHWYQQLPGTAPKLLIYGNTNRPSGVPERFSGSKSGTSASLAITGLQAEDEADYYCQSYDTNLSAPWVFGGGTKLTVL ?
(A) 0.71

All values here come from patent US20260258115A1.
